pIC50: −log10 of the molar value.
Each entry below carries its measured pIC50, system: Tyrosine-protein kinase JAK3 (Homo sapiens, UniProt P52333).
Sequence (P52333 whole entry): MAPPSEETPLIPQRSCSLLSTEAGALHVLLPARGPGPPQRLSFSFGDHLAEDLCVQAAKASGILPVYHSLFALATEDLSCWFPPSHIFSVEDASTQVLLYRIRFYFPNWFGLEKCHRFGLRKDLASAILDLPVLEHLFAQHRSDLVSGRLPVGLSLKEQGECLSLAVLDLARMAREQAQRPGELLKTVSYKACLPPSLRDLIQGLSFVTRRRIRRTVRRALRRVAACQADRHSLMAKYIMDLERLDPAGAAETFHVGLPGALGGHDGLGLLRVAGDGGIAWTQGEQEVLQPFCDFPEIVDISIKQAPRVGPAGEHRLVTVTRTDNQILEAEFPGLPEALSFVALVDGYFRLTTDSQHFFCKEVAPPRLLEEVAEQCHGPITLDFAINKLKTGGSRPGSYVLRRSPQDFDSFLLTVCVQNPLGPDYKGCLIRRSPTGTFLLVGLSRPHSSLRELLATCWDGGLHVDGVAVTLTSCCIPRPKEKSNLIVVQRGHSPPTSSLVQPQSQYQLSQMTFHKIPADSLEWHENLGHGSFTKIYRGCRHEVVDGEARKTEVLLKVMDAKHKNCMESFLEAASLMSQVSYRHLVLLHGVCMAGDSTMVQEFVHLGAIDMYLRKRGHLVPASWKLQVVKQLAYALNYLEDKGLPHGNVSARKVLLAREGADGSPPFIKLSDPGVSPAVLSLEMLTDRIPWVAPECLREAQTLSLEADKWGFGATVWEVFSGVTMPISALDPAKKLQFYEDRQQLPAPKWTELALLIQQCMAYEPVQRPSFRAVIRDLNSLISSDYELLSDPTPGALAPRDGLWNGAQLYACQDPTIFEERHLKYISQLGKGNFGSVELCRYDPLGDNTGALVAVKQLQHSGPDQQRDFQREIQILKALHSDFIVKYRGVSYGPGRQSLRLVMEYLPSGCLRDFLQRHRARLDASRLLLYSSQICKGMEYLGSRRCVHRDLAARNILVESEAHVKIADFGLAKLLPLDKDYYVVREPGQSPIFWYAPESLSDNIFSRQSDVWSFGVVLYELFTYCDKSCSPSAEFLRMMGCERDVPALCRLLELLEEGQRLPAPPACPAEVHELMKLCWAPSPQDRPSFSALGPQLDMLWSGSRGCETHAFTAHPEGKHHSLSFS

COMPOUND	pIC50
CC[C@H](Cn1ccc2cnc(Nc3cnn([C@@H](CCO)C(=O)O)c3)nc21)C(C)C	> 7.00
CCC(CC)Cn1ccc2cnc(Nc3cnn(CC(=O)OCC4OC(O)CC(O)C4O)c3)nc21 (configuration not stated)	> 7.00
